# System: HUVEC
# METHOD: Antiproliferative activity against HUVEC
# Type: functional, cell-based
# CONDITION_SET: Homo sapiens
MEASURED_ATTRIBUTE: pIC50
pIC50 is a log-scale quantity: -log10 of the concentration expressed in molar.

# compound Cc1nc2c([nH]1)C(=O)/C(=N/c1ccc(C(F)(F)F)cc1)C(Cl)=C2O ; its pIC50 = 6.22

# compound Cc1nc2c([nH]1)C(=O)/C(=N/c1cccc(Cl)c1)C(Cl)=C2O ; its pIC50 = 6.22

# compound Cc1ccc(NC2=C(Cl)C(=O)c3nc(C)[nH]c3C2=O)cc1 ; its pIC50 = 6.00

# compound Cc1nc2c([nH]1)C(=O)/C(=N/c1cccc(Cl)c1Cl)C(Cl)=C2O ; its pIC50 = 6.52

# compound Cc1nc2c([nH]1)C(=O)/C(=N/c1ccccc1)C(Cl)=C2O ; its pIC50 = 5.92

# compound Cc1nc2c([nH]1)C(=O)/C(=N/c1ccc(Cl)cc1Cl)C(Cl)=C2O ; its pIC50 = 6.30

# compound Cc1nc2c([nH]1)C(=O)/C(=N/c1ccc(F)cc1)C(Cl)=C2O ; its pIC50 = 6.00

# compound Cc1nc2c([nH]1)C(=O)/C(=N/c1cccc(Br)c1)C(Cl)=C2O ; its pIC50 = 6.10

# compound Cc1nc2c([nH]1)C(=O)/C(=N/c1ccc(F)c(F)c1F)C(Cl)=C2O ; its pIC50 = 6.30

# compound Cc1nc2c([nH]1)C(=O)/C(=N/c1ccc(I)cc1)C(Cl)=C2O ; its pIC50 = 5.70

# compound Cc1nc2c([nH]1)C(=O)/C(=N/c1ccc(F)cc1F)C(Cl)=C2O ; its pIC50 = 6.00

# compound Cc1nc2c([nH]1)C(=O)/C(=N/c1ccc(Cl)cc1)C(Cl)=C2O ; its pIC50 = 6.10
